- Study target: T1, Human CD3eg linker (human)
- T1 construct: Single-chain construct; also called recombinant human CD3
- T1 chain: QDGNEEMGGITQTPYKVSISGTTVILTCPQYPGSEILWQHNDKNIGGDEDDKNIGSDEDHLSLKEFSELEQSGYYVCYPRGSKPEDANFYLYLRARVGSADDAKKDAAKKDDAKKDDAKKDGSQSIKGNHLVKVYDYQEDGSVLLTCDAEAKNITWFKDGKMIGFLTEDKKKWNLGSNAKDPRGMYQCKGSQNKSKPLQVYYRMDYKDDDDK
- Test summary: SPR; fold vs parent H183/L072
Below: a set of entries, each annotated with reported fold change of affinity.
The response must be a number in fold with no trailing unit.

Binder: H183/L072 VL A89G (antibody, name in Kabat numbering, V domains shown) VH: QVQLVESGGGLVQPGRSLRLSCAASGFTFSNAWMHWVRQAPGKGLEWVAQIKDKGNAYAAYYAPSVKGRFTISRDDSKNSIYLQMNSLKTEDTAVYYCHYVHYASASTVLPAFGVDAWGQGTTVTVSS VL: DIVMTQSPLSLPVTPGEPASISCQASQELVHMNRNTYLHWYQQKPGQAPRLLIYKVSNRFPGVPDRFSGSGSGTDFTLKISRVEAEDVGVYYCGQGTSVPFTFGQGTKLEIK
fold change of affinity (fold): 0.7
--
Binder: H183/L072 VL H27dF (antibody, name in Kabat numbering, V domains shown) VH: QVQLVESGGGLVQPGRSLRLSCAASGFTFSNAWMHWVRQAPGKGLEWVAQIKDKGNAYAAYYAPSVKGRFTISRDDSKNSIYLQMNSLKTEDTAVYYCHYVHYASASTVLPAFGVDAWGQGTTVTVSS VL: DIVMTQSPLSLPVTPGEPASISCQASQELVFMNRNTYLHWYQQKPGQAPRLLIYKVSNRFPGVPDRFSGSGSGTDFTLKISRVEAEDVGVYYCAQGTSVPFTFGQGTKLEIK
fold change of affinity (fold): 0.2

Proceed to the following item.
Quick check: fold change of affinity of H183/L072 VL V27cN (antibody, name in Kabat numbering, V domains shown) VH: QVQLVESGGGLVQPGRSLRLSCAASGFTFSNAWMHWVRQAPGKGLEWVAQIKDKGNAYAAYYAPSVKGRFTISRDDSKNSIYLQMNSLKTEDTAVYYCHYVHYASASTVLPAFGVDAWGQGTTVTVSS VL: DIVMTQSPLSLPVTPGEPASISCQASQELNHMNRNTYLHWYQQKPGQAPRLLIYKVSNRFPGVPDRFSGSGSGTDFTLKISRVEAEDVGVYYCAQGTSVPFTFGQGTKLEIK ?
0.3
